# system.under.test: IL-1β (UniProt P01584 117-269)
# measurement.protocol: Biacore, Fab periplasmic extract on IL-1β
readout.type: fold difference in affinity vs original (fold)
Give a bare numeral; the unit fold is implied.

binder	recorded.number
XPA23 light chain S53I (Fab, V domains shown, Single light chain substitution; Fab in periplasmic extract; also called C5A (XPA23) S53I) VH: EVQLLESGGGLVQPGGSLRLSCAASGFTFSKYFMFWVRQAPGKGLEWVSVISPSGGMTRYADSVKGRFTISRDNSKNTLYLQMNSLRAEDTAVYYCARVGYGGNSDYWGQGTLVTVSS VL: DIQMTQSPSSVSASVGDRLTIICRASQDINRWLAWYQQTPGNAPKLLIHSATILQSGVPSRFSGSGSGTDFTLTINSLQPEDFATYYCQQADSFPLTFGGGTKVEIK	1.42
XPA23 light chain A91L (Fab, V domains shown, Single light chain substitution; Fab in periplasmic extract; also called C5A (XPA23) A91L) VH: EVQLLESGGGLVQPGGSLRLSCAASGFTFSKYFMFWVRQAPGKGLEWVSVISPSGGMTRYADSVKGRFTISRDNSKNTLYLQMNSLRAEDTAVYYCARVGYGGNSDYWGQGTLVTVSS VL: DIQMTQSPSSVSASVGDRLTIICRASQDINRWLAWYQQTPGNAPKLLIHSATSLQSGVPSRFSGSGSGTDFTLTINSLQPEDFATYYCQQLDSFPLTFGGGTKVEIK	0.39

Shift focus to the following entry.
Prompt: Consider the binder shown here: XPA23 light chain D92I (Fab, V domains shown, Single light chain substitution; Fab in periplasmic extract; also called C5A (XPA23) D92I) VH: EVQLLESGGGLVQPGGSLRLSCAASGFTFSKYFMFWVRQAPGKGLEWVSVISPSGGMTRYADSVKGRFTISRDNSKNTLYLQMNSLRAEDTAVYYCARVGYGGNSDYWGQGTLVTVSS VL: DIQMTQSPSSVSASVGDRLTIICRASQDINRWLAWYQQTPGNAPKLLIHSATSLQSGVPSRFSGSGSGTDFTLTINSLQPEDFATYYCQQAISFPLTFGGGTKVEIK What is its recorded fold difference in affinity vs original?
Response: 0.33
